These measurements were taken from patent US20120045438A1.

The following binders are listed with their measured Percent IL-13 R130Q (30 ng/ml) Binding values.
system under test: T1, human IL-13 R130Q variant (R110Q of the mature chain) (human, UniProt P35225 35-146, Biotinylated on amines (NHS-LC-biotin, 4:1) in ELISA, panning and competition assays. The letters are unchanged.)
T1 construct: R130Q counts from Met 1 of the signal peptide, R110Q on the mature chain; Bought from Peprotech; also called IL-13 R110Q; b-R130Q
T1 sequence (P35225 35-146 limits assumed, stated change not applied): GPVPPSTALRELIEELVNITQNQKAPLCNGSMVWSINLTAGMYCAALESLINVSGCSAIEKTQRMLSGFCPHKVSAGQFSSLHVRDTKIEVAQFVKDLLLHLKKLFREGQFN
procedure text: direct binding ELISA, mAb captured by anti-human Fc, biotinylated IL-13 R130Q, crude supernatant;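 note: 100% is the positive control mAb signal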
Numbers only here, please. The scale is %.

Sample records with Percent IL-13 R130Q (30 ng/ml) Binding:
1. Lc15Hc1 (antibody, V domains shown) VH: QVTLKESGPALVKPTQTLTLTCTFSGFSLSTYGMGVGWIRQPPGKALEWLAHIWWDDVKRYNPALKSRLTISKDTSKNQVVLTMTNMDPVDTATYYCARMGSDYDVWFDYWGQGTLVTVSS VL: VIWMTQSPSLLSASTGDRVTISCRASKSISKYLAWYQQKPGKAPELLIYSGSTLQSGVPSRFSGSGSGTDFTLTISCLQSEDFATYYCQQHNEYPYTFGGGTKVEIK | 76.2
2. Lc15Hc2 (antibody, V domains shown) VH: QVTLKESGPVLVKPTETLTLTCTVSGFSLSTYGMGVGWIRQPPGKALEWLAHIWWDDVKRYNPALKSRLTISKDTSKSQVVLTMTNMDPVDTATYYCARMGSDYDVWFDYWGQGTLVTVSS VL: VIWMTQSPSLLSASTGDRVTISCRASKSISKYLAWYQQKPGKAPELLIYSGSTLQSGVPSRFSGSGSGTDFTLTISCLQSEDFATYYCQQHNEYPYTFGGGTKVEIK | 94.8

The record that follows has no Percent IL-13 R130Q (30 ng/ml) Binding shown yet.
Prompt: Which Percent IL-13 R130Q (30 ng/ml) Binding value is on record for Lc7Hc1 (antibody, V domains shown) VL: DIQLTQSPSSLSASVGDRVTITCRASKSISKYLAWYRQKPGKVPKLLIYSGSTLQSGVPSRFSGSGSGTDFTLTISSLQPEDVATYYGQQHNEYPYTFGQGTKLEIK VH: QVTLKESGPALVKPTQTLTLTCTFSGFSLSTYGMGVGWIRQPPGKALEWLAHIWWDDVKRYNPALKSRLTISKDTSKNQVVLTMTNMDPVDTATYYCARMGSDYDVWFDYWGQGTLVTVSS ?
Response: -1.4
